- targetOrTestSystem: K28H/Q32H GB1 (Streptococcus sp. group G, UniProt P06654, K254H/Q258H)
- Construct: made in house
- assaySummary: Isothermal titration calorimetry (ITC) at 298 K, single-site binding model
- statedConditions: pH 9.0; 298 K; read-out: KD

- molecule: "O=C([O-])CN(CC(=O)[O-])CC(=O)[O-].[Cu+2] [Cu^II–NTA, Cu^II-nitrilotriacetic acid]"
  Kd: "25 µM"

----------
- targetOrTestSystem: K28H/Q32H GB1 (Streptococcus sp. group G, UniProt P06654, K254H/Q258H)
- Construct: made in house
- assaySummary: Isothermal titration calorimetry (ITC) at 298 K, single-site binding model
- statedConditions: pH 6.4; 298 K; read-out: KD

- testSmiles: "O=C([O-])CN(CC(=O)[O-])CC(=O)[O-].[Cu+2]"
  targetOrTestSystem: "K28H/Q32H GB1 (Streptococcus sp. group G, UniProt P06654, K254H/Q258H)"
  Kd: "98.6 µM"
